# System: cynomolgus ARG2
# Sequence (as listed by the source): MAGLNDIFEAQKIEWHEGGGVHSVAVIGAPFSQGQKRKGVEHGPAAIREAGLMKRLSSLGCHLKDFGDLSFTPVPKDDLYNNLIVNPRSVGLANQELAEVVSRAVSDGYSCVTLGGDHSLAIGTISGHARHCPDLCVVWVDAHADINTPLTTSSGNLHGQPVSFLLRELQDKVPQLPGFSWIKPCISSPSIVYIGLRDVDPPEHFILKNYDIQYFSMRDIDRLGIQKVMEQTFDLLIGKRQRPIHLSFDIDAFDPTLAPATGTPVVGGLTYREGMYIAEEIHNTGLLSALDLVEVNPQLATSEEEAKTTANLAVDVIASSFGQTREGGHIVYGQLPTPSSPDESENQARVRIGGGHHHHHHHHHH
# ASSAY_REMARKS: Bio-Layer Interferometry (OctetRED) binding kinetics, cynomolgus ARG2
# CONDITIONS: second-generation Fab; cyno ARG2 ligand; same extended assay
MEASURED_PARAMETER: ka (M⁻¹ s⁻¹)
Just the number please, in M⁻¹ s⁻¹, no unit attached.

// solved cases for ka follow
- C0021181: anti-ARG2 antibody, VH SEQ ID NO: 342, VL SEQ ID NO: 347 (antibody, listed as Homo sapiens, V domains shown, C0021181) VH: EVQLLESGGGLVRPGGSLRLSCAASEFTFRYDYHVWVRQAPGKGLEWVSAISGSGGSTYYADSVKSRFTISRDNSKNTLYLQMNSLRAEDTAVYYCARLRADLGLYMDLWGRGTLVTVSS VL: QSVLTQPPSVSAAPGQKVAVSCSGSSSNIGSHYVSWYQQLPGTAPKLLIYDNSERTSGIPDRFSGSKSGTSATLGITGLQTGDEADYYCGTWDELTSNLVFGGGTRLTVL: 257000
- C0021177: anti-ARG2 antibody, VH SEQ ID NO: 322, VL SEQ ID NO: 327 (antibody, listed as Homo sapiens, V domains shown, C0021177) VH: EVQLLESGGGLVQPGGSLRLSCAASGFTFRYEVAAWVRQAPGKGLEWVSAISGPAPKGYYADSVKGRFTISRDNSKNTLYLQMNSLRAEDTAVYYCARLRADLGLYMDLWGRGTLVTVSS VL: QSELTQPPTASAAPGQKVTISCSGSSSNIGNHYVSWYQQLPGTAPKLLIYDTTVLSSGIPDRFSGSKSGTSATLGITGLQTGDEADYYCGTWDELTSNLVFGGGTKLTVL: 414000

Looking up C0021158 IgG: anti-ARG2 antibody, VH SEQ ID NO: 282, VL SEQ ID NO: 287; IgG and Fab versions carry these sequences (antibody, listed as Homo sapiens, V domains shown, C0021158 IgG) VH: EVQLLESGGGLVQPGGSLRLSCAASGFTFRYEVAAWVRQAPGKGLEWVSAISGPIPKGYYADSVKGRFTISRDNSKNTLYLQMNSLRAEDTAVYYCARLRADLGLYMDLWGRGTLVTVSS VL: QSVLTQPPSVSAAPGQKVTISCSGSSSNIGNHYVSWYQQLPGTAPKLLIYDNSERTAGVPDRFSGSKSGTSATLGITGLQTGDEADYYCGTWDELTSNLVFGGGTKLTVL , I found its ka recorded as 429000
